Attribution: patent USRE49850E1

- assay remarks: Pharmacokinetics in rat
- Type: in vivo, Wistar Rat
- measurement setup: male, Wistar, plasma; po, 40 mg/kg in rat
property label: AUC (µM·h)
Report only the number, with the unit µM·h understood.

Noted for Cc1nc(NC2CCCC2)sc1-c1ccnc(Nc2ccc(N3CCNCC3)cn2)n1 : its AUC reads 6.6

====

Here the recorded remaining activity at 10 µM is given for each entry.
- system tested: CDK7H (Homo sapiens, UniProt P50613)
- Sequence (P50613 whole entry): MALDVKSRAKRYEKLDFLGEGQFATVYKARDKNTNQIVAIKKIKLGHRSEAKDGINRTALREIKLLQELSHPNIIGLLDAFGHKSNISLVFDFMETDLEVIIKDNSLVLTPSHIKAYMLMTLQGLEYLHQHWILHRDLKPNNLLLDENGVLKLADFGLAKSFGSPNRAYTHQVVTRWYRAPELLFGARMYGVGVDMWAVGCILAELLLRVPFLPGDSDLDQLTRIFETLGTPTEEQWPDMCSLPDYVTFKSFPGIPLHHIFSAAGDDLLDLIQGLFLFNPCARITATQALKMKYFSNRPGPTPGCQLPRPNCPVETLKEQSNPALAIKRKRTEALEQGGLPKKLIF
- Sequence (P51946 whole entry partner): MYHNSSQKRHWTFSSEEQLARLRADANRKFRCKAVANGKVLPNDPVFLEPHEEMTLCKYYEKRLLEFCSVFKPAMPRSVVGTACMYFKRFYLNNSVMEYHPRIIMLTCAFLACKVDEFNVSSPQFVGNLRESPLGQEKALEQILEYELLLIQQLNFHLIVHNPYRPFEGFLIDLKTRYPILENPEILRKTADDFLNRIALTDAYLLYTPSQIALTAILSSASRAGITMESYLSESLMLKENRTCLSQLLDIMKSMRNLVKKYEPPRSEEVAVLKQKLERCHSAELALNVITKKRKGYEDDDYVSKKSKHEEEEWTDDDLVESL
- Sequence (P51948 whole entry partner): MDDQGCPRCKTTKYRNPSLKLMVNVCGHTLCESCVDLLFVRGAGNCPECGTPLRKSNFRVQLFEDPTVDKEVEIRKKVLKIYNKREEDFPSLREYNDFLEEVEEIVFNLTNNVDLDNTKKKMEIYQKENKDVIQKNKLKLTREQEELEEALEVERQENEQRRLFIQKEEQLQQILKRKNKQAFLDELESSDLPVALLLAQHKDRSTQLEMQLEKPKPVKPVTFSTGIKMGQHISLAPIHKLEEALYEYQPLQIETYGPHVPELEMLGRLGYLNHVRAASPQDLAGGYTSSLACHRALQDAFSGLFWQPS
- assay remarks: Kinase assay CDK7H (radiometric profiling service)
- Type: biochemical
- measurement setup: compound at 10 μM; read-out: % remaining enzymatic activity at 10 μM CDK7H
Report only the number, with the unit % understood.

| smiles repr | property label | val |
| --- | --- | --- |
| Cc1[nH]c(=O)sc1-c1ccnc(Nc2ccc(N3CCNCC3)cn2)n1 | remaining activity at 10 µM | 24 |
| Cc1[nH]c(=O)sc1-c1ccnc(Nc2ccc(N3CCN(C)CC3)cn2)n1 | remaining activity at 10 µM | 24 |
| CNc1nc(C)c(-c2nc(Nc3ccc(N4CCNCC4)cn3)ncc2C#N)s1 | remaining activity at 10 µM | 39 |

Noted for Cc1c(-c2ccnc(Nc3ccc(N4CCNCC4)cn3)n2)sc(=O)n1C1CCCC1 : its remaining activity at 10 µM reads 22

====

// pKi collected for CDK1B (Homo sapiens, UniProt P06493)
The meaning of pKi here: minus log10 of the concentration in molar units.

| compound | system tested | property label | val |
| --- | --- | --- | --- |
| Cc1nc(Nc2ccccc2)sc1-c1ccnc(Nc2ccc(N3CCNCC3)cn2)n1 [Compound 89] | CDK1B (Homo sapiens, UniProt P06493) | pKi | 5.69 |
| CNc1nc(C)c(-c2ccnc(Nc3ccc(N4CCN(C(C)=O)CC4)cn3)n2)s1 [Compound 33] | CDK1B (Homo sapiens, UniProt P06493) | pKi | 5.51 |
| CC(=O)N1CCN(c2ccc(Nc3nccc(-c4sc(NC5CCCC5)nc4C)n3)nc2)CC1 [Compound 68] | CDK1B (Homo sapiens, UniProt P06493) | pKi | 5.49 |

Field: next compound
The reported pKi value, CDK1B (Homo sapiens, UniProt P06493), for CC(=O)N1CCN(c2ccc(Nc3nccc(-c4sc(N(C)C5CCCC5)nc4C)n3)nc2)CC1 [Compound 87] reads 5.50

====

- system tested: CDK4D1 (Homo sapiens)
- Sequence (P11802 whole entry): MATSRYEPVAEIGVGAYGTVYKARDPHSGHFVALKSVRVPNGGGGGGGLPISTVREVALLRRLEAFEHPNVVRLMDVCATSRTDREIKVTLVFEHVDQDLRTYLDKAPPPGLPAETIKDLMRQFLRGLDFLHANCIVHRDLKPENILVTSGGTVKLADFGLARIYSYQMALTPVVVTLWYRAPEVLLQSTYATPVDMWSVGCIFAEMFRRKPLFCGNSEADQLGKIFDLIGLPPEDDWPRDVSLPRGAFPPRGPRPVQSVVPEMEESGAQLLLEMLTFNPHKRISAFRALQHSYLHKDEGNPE
- Sequence (P24385 whole entry partner): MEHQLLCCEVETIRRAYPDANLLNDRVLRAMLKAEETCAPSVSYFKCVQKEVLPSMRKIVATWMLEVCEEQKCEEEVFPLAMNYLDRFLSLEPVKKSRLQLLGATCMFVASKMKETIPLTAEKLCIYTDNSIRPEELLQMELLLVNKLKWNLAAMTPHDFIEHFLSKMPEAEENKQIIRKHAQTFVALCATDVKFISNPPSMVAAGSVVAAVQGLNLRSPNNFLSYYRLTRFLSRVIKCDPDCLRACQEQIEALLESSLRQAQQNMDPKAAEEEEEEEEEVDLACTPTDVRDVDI
- assay remarks: Kinase assay CDK4/D1 (radiometric or ADP Glo)
- measurement setup: apparent Ki calculated from Km (ATP) and IC50; read-out: CDK inhibition Ki CDK4D1
- Description: Eurofins Pharma Discovery or Reaction Biology Corporation Kinase Profiler services were used to measure inhibition of CDKs and other kinases by radiometric assay. Inhibition of CDK4/D1, CDK6/D3 and CDK9/T1 were also determined in-house using ADP Glo Kinase assays (Promega Corporation, Madison, USA). […] Luminescence was measured using an EnVision Multilabel plate reader (PerkinElmer, Buckinghamshire, UK). […]
Here the recorded Ki is given for each entry.
Report only the number, with the unit nM understood.

Below: 7 molecules and their reported Ki.
| smiles repr | property label | unit label | val |
| --- | --- | --- | --- |
| CCN1CCN(Cc2ccc(Nc3ncc(F)c(-c4sc(NC5CCCC5)nc4C)n3)nc2)CC1 | Ki | nM | 3 |
| Cc1nc(NC(C)C)sc1-c1ccnc(Nc2ccc(N3CCOCC3)cn2)n1 | Ki | nM | 41 |
| Cc1nc(C)c(-c2ccnc(Nc3ccc(N4CCN(C)CC4)cn3)n2)s1 | Ki | nM | 30 |
| Cc1nc(C(C)C)sc1-c1ccnc(Nc2ccc(N3CCN(C)CC3)cn2)n1 | Ki | nM | 10 |
| CC(=O)N1CCN(c2ccc(Nc3ncc(F)c(-c4sc(N(C)C)nc4C)n3)nc2)CC1 | Ki | nM | 24 |
| Cc1nc(C(C)C)sc1-c1ccnc(Nc2ccc(N3CCNCC3)cn2)n1 | Ki | nM | 11 |
| CC(=O)N1CCN(c2ccc(Nc3nccc(-c4sc(NC5CCCC5)nc4C(F)(F)F)n3)nc2)CC1 | Ki | nM | 4 |

Field: next molecule
Noted for Cc1nc(NC(C)C)sc1-c1ccnc(Nc2ccc(N3CCCNCC3)cn2)n1 : its Ki reads 16

====

// log10 of Ki collected for CDK 2A (Homo sapiens, UniProt P24941)
Log scale reminder: Ki in nM, then log10 taken.

| smiles repr | val |
| --- | --- |
| CNc1nc(C)c(-c2nc(Nc3ccc(N4CCNCC4)cn3)ncc2F)s1 | 2.37 |
| CC(=O)N1CCN(c2ccc(Nc3nccc(-c4sc(NC5CCCC5)nc4C(F)(F)F)n3)nc2)CC1 | 1.15 |
| CCc1nc(C)c(-c2ccnc(Nc3ccc(N4CCN(CC)CC4)cn3)n2)s1 | 3.26 |
| CNc1nc(C)c(-c2nc(Nc3ccc(N4CCOCC4)cn3)ncc2C#N)s1 | 2.30 |
| Cc1nc(NC(C)C)sc1-c1ccnc(Nc2ccc(N3CCN(C)CC3)cn2)n1 | 2.60 |
| CNc1nc(C)c(-c2ccnc(Nc3ccc(N4CCOCC4)cn3)n2)s1 | 2.66 |
| Cc1nc(N(C)c2ccccc2)sc1-c1ccnc(Nc2ccc(N3CCN(C)CC3)cn2)n1 | 3.02 |
| CNc1nc(C)c(-c2nc(Nc3ccc(N4CCN(C(C)=O)CC4)cn3)ncc2F)s1 | 2.25 |
| CCc1nc(C)c(-c2ccnc(Nc3ccc(N4CCN(C)CC4)cn3)n2)s1 | 3.26 |
| CNc1nc(C)c(-c2nc(Nc3ccc(N4CCOCC4)cn3)ncc2F)s1 | 2.00 |

The reported log10 of Ki value, CDK 2A (Homo sapiens, UniProt P24941), for CNc1nc(C)c(-c2ccnc(Nc3ccc(N4CCN(C)CC4)cn3)n2)s1 reads 2.81

The reported log10 of Ki value, CDK 2A (Homo sapiens, UniProt P24941), for CNc1nc(C)c(-c2ccnc(Nc3ccc(N4CCN(Cc5ccccc5)CC4)cc3)n2)s1 reads 1.57

The reported log10 of Ki value, CDK 2A (Homo sapiens, UniProt P24941), for CNc1nc(C)c(-c2ccnc(Nc3ccc(N4CCNCC4)cn3)n2)s1 reads 2.95

The reported log10 of Ki value, CDK 2A (Homo sapiens, UniProt P24941), for Cc1nc(SC(C)C)sc1-c1ccnc(Nc2ccc(N3CCNCC3)cn2)n1 reads 2.26

The reported log10 of Ki value, CDK 2A (Homo sapiens, UniProt P24941), for Cc1nc(N(C)C)sc1-c1nc(Nc2ccc(N3CCN(C)CC3)cn2)ncc1F reads 3.14

The reported log10 of Ki value, CDK 2A (Homo sapiens, UniProt P24941), for CSc1nc(C)c(-c2ccnc(Nc3ccc(N4CCN(C(C)=O)CC4)cn3)n2)s1 reads 3.68

The reported log10 of Ki value, CDK 2A (Homo sapiens, UniProt P24941), for COc1nc(C)c(-c2ccnc(Nc3ccc(N4CCN(C)CC4)cn3)n2)s1 reads 3.56

The reported log10 of Ki value, CDK 2A (Homo sapiens, UniProt P24941), for CCN1CCN(c2ccc(Nc3nccc(-c4sc(C(C)C)nc4C)n3)nc2)CC1 reads 2.67

The reported log10 of Ki value, CDK 2A (Homo sapiens, UniProt P24941), for CCc1nc(C)c(-c2ccnc(Nc3ccc(N4CCNCC4)cn3)n2)s1 reads 3.23

The reported log10 of Ki value, CDK 2A (Homo sapiens, UniProt P24941), for CC(=O)N1CCN(c2ccc(Nc3nccc(-c4sc(SC(C)C)nc4C)n3)nc2)CC1 reads 1.88

The reported log10 of Ki value, CDK 2A (Homo sapiens, UniProt P24941), for CNc1nc(C)c(-c2nc(Nc3ccc(N4CCN(S(C)(=O)=O)CC4)cn3)ncc2F)s1 reads 1.88

The reported log10 of Ki value, CDK 2A (Homo sapiens, UniProt P24941), for CN1CCN(c2ccc(Nc3nccc(-c4sc(NC5CCCC5)nc4C(F)(F)F)n3)nc2)CC1 reads 1.34

The reported log10 of Ki value, CDK 2A (Homo sapiens, UniProt P24941), for CCN1CCN(Cc2ccc(Nc3nccc(-c4sc(C(C)C)nc4C)n3)nc2)CC1 reads 2.89

The reported log10 of Ki value, CDK 2A (Homo sapiens, UniProt P24941), for CNc1nc(C)c(-c2nc(Nc3ccc(N4CCCNCC4)cn3)ncc2F)s1 reads 2.31

The reported log10 of Ki value, CDK 2A (Homo sapiens, UniProt P24941), for Cc1nc(NC(C)C)sc1-c1ccnc(Nc2ccc(N3CCOCC3)cn2)n1 reads 2.10

The reported log10 of Ki value, CDK 2A (Homo sapiens, UniProt P24941), for Cc1nc(C(C)C)sc1-c1ccnc(Nc2ccc(N3CCN(C)CC3)cn2)n1 reads 2.46

The reported log10 of Ki value, CDK 2A (Homo sapiens, UniProt P24941), for CCN1CCN(c2ccc(Nc3ncc(F)c(-c4sc(NC5CCCC5)nc4C)n3)nc2)CC1 reads 2.54

The reported log10 of Ki value, CDK 2A (Homo sapiens, UniProt P24941), for Cc1nc(NC2CCCC2)sc1-c1nc(Nc2ccc(N3CCC(N(C)C)CC3)cn2)ncc1F reads 3.06
